Test system: UO-31 renal
Assay: NCI tumour cell line growth inhibition, 48 h
endpoint name: TGI

Query: // lookup TGI for C[N+](C)(C)CC1CCC/C1=N/O (stereo not drawn)
Response: > 100 µM

Query: Moving on to CC(C)N1CCN(Cc2ccc3c(NNC(=O)c4ccccc4)nc4cc(F)ccc4n23)CC1
Response: 3.14 µM

Query: And for N#CC1CCCCOCCOCCOCCOCCOCCCCCC1=O (stereo not drawn) ?
Response: > 100 µM

* * *

Tested on: SW-620 colon
Test: NCI tumour cell line growth inhibition, 48 h
endpoint name: TGI

Query: // returns reported TGI for input C=C1C(=O)O[C@H]2[C@H]1CC/C(COC(=O)CCSCCC(=O)OC/C1=C/CC[C@@]3(C)O[C@H]3[C@H]3OC(=O)C(=C)[C@@H]3CC1)=C\CC[C@@]1(C)O[C@@H]21
Response: 2.02 µM

Query: Same thing, different compound: CSc1c(C#N)c(N)nc2c(N=Nc3ccc(Br)cc3)c(N)nn12
Response: 12.7 µM

Query: Check O=[N+]([O-])c1ccccc1S(=O)(=O)c1ccccc1 too.
Response: > 100 µM

Query: // repeat for O=C(O)C1CCCCC1c1c2ccc(=O)c(O)c-2oc2c(O)c(O)ccc12 (centres undefined) and report
Response: 47.7 µM

Query: Query CC1(C)C(CCO)CC1n1cc(I)c(=O)[nH]c1=O (centres undefined) next
Response: > 100 µM

Query: // next record N#CC1CCCCOCCOCCOCCOCCOCCCCCC1=O (centres undefined)
Response: > 100 µM

Query: Next compound up: O=[N+]([O-])c1ccc(Cl)c(C2CC(c3cccc4ccccc34)=Nc3ccccc3S2)c1 (centres undefined)
Response: > 66.7 µM

Query: Now try COc1cc(C2=NNC(=O)c3ccccc3N2c2nc(-c3cccs3)nc3ccc(Br)cc23)cc(OC)c1OC .
Response: > 100 µM

Query: Would you mind doing O=c1[nH]c2ccccc2c(O)c1/C=N/C(=S)NCc1ccccc1 as well?
Response: > 100 µM

* * *

Tested on: OVCAR-8 ovarian
Assay: NCI tumour cell line growth inhibition, 48 h
endpoint name: TGI

Query: Entry under review: Fc1ccc(N=C/C=C/Nc2ccc(F)cc2)cc1 . Reported TGI?
Response: 25.9 µM

Query: What do you get for Cc1cc(-c2ccccc2)nc(Nc2nc3ccccc3o2)n1 ?
Response: > 100 µM

Query: Let us now turn to O=C1Nc2ccccc2Cn2c1cc1oc(-c3ccccc3)cc12
Response: > 100 µM

Query: Same thing, different molecule: N#CC1CCCCOCCOCCOCCOCCOCCCCCC1=O (stereo unspecified)
Response: > 100 µM

Query: Queued: Nc1c(O)cc(N=C2C(=O)C=CC=C2C(=O)O)c(O)c1C(=O)O
Response: > 100 µM

Query: What about this molecule? O=C(c1ccccc1)n1cc(-c2ccccc2)c2c(=O)[nH]cnc21
Response: > 100 µM

* * *

Test system: SF-539 CNS
Test: NCI tumour cell line growth inhibition, 48 h
endpoint name: log10(TGI) (log10 of the value in µM)
# values: log10(TGI), units µM

Query: Given Oc1ccc(-c2nc3ccc4[nH]ncc4c3c3c2CCCC3)c(F)c1 , state its recorded log10(TGI).
Response: 1.01

Query: And COc1cc([C@@H]2c3cc4c(cc3[C@@H](Nc3ccccc3C(=O)c3ccccc3)[C@H]3COC(=O)[C@H]23)OCO4)cc(OC)c1OC ?
Response: -0.20

Query: Query COC(=O)C1=C(OC(=O)/C=C/c2ccccc2)C(C(=O)OC)[C@@]2(O)[C@@H](C(=O)OC)[C@H](C)C[C@@H]1[C@@H]2C(=O)OC (stereo partly specified) next
Response: 1.72

Query: Would you mind doing O=[N+]([O-])c1ccc(Cl)c(C2CC(c3cccc4ccccc34)=Nc3ccccc3S2)c1 (stereo unspecified) as well?
Response: 1.69

Query: Can you handle C=CC(OC(C)=O)c1ccc(OC(=O)C(C)C)c(OC)c1 (stereo unspecified) next?
Response: 1.35

* * *

System: DMS 114 small cell lung
Assay: NCI tumour cell line growth inhibition, 48 h
endpoint name: TGI

Query: Form field: reported TGI of O=[N+]([O-])c1ccccc1S(=O)(=O)c1ccccc1
Response: > 100 µM

Query: Same lookup for Cc1c(CCO)c(=O)n2c([nH]c3ccccc32)c1C#N , please.
Response: > 100 µM

Query: Here is the next compound: CCC/C=C1\CCC(CN(C)C)C1=O (stereo unspecified)
Response: 31.2 µM

Query: // repeat for C=CCc1cc(-c2cc(CC=C)c(O)c(CN(CC)CC)c2)cc(CN(CC)CC)c1O and report
Response: > 100 µM

Query: Try the compound O=S(OC12CC3CC(CC(C3)C1)C2)c1cc(Cl)cc(Cl)c1OCc1ccccc1 (stereo unspecified)
Response: > 100 µM

Query: Check CN(C)C(=Nc1nc(=[N+](C)C)ss1)N(C)C too.
Response: > 100 µM

* * *

Test system: SNB-19 CNS
Test: NCI tumour cell line growth inhibition, 48 h
So I've got a bunch of molecules here, and I need their TGI values.

Query: // returns reported TGI for input CC(C)N1CCN(Cc2ccc3c(NNC(=O)c4ccccc4)nc4cc(F)ccc4n23)CC1
Response: 8.07 µM

Query: Ok, now CCCC(C)n1c(C)nc2c1C(=O)c1ccccc1C2=O (stereo unspecified)
Response: > 100 µM

Query: Also need CS(=O)(=O)NNS(=O)(=O)c1ccccc1 , thanks.
Response: > 100 µM

Query: Also Cc1nc2c(o1)C(=Nc1ccccc1)c1ccccc1C2=O ?
Response: 23.7 µM

Query: Same for Cc1ccc(C(=O)N(Cc2ccccc2)Cc2ccccc2)cc1N=NN(C)C
Response: > 100 µM

Query: Would you kindly repeat that for Cn1c(=O)c(NC(=O)C(Cl)(Cl)Cl)nc2ccccc21 ?
Response: > 100 µM

* * *

System: NCI-H226 lung
Assay: NCI tumour cell line growth inhibition, 48 h
endpoint name: TGI (µM)
Just the number in µM, nothing appended.

Query: If you can, please state the reported TGI value of CCCCCCNC(=O)Oc1ccc(/C(=C(/C)Cc2ccc(OC)cc2)c2ccc(OCCCN(C)C)cc2)cc1 .
Response: 36

Query: // repeat for O=[N+]([O-])c1ccc(C2CC(c3ccccc3Cl)=Nc3ccccc3S2=O)cc1 (stereo not given) and report
Response: 17.6

Query: Then what about the compound Brc1ccc2c3c1[C@H]1O[C@H]1c1cccc(c1-3)[C@@H]1O[C@H]21 ?
Response: 64

Query: Try this compound next: Cc1ccc(/C=C2\CN(C(=O)C(Cl)Cl)C/C(=C\c3ccc(C)cc3)C2=O)cc1
Response: 0.622

Query: Ok, now CC(=O)OC(Cc1ccc2ccccc2n1)(C(F)(F)F)C(F)(F)F
Response: 4.77

Query: Same thing, different compound: Cc1cc2cc3ccc(N(C)C)cc3nc2cc1N
Response: 3.6

Query: What do you get for S=C(Nc1ccc(N=Nc2ccccc2)cc1)SCc1ccccc1 ?
Response: 39

Query: Similarly, ON(Cc1ccccc1)C(=S)c1ccccc1 ?
Response: 93

* * *

For each entry below, report its TGI value.
Tested on: M14 melanoma
Test: NCI tumour cell line growth inhibition, 48 h

Query: Query the reported TGI for M14 melanoma; item: CC(=O)OCc1cncn1S(=O)(=O)c1ccc(C)cc1
Response: > 100 µM

Query: Please answer likewise for COc1cc(OC)c2nccc(NCCCN(C)C)c2c1[N+](=O)[O-]
Response: > 100 µM

Query: Then CSc1cc(-c2ccccn2)nc(-c2ccccn2)c1 ?
Response: 0.335 µM

Query: // next record O=[N+]([O-])c1ccc(-c2noc(-c3ccc(Cl)cc3)c2C2=NCCN2)cc1
Response: > 100 µM

Query: How about CC(=O)OC1=CC2=CC[C@H]3[C@@H]4CCC(=O)[C@@]4(C)CC(=O)[C@]3(S)[C@@]2(C)CC1 ?
Response: > 100 µM

Query: Input CN(Cc1cccc(F)c1)c1ccc(CO)c(Cl)c1
Response: 83 µM

Query: Also COc1ccc2c(c1)C/C(=C\c1cccc3ccccc13)C2=O ?
Response: > 100 µM

Query: Another molecule: CCO[C@@]1(COCc2ccccc2)OC(=O)C[C@@H]1N1C(=O)OC[C@@H]1c1ccccc1
Response: > 100 µM

Query: Repeat with CCN(Cc1ccc(F)cc1)c1ccc(CO)c(C)c1
Response: 37.6 µM

Query: N#CC1CCCCOCCOCCOCCOCCOCCCCCC1=O (centres undefined) , same question.
Response: > 100 µM

Query: Now consider Fc1ccc(N=C/C=C/Nc2ccc(F)cc2)cc1 and answer again.
Response: 11.9 µM

Query: Same question, N[C@@H]1C(=O)N2C(C(=O)OC(c3ccccc3)c3ccccc3)=C(CCl)CS[C@H]12 this time
Response: > 96.2 µM

Query: Thanks! And O=C(O)C1CC2(C1)CC(C(=O)O)C2 (centres undefined) ?
Response: > 100 µM

Query: Same again, this time with O=C1c2ccccc2C(=O)c2c(O)c(NCCCNCCO)cc(O)c21
Response: 36.6 µM

Query: Entry COC1CC(OC2C(C)OC(OC3C(C)OC(OC4C(O)CC(O[C@H]5CC[C@@]6(C)C(=CC[C@]7(O)[C@@H]6C[C@@H](OC(C)=O)[C@@]6(C)[C@]7(O)CC[C@@]6(O)C(C)=O)C5)OC4C)CC3OC)CC2OC)OC(C)C1O (some centres undefined) please
Response: > 12.5 µM

Query: Please do the same for CCn1c(SC(C)C(=O)c2c(C)n(C)n(-c3ccccc3)c2=O)nc2ccccc2c1=O (centres undefined) as well.
Response: > 100 µM

Query: What do you get for Cc1cccc(C(C)C)c1N1C(=O)C(=O)C(c2nc3ccccc3o2)C(=O)C1=O ?
Response: > 100 µM

Query: Then this molecule: CC(=O)N1N=C(c2ccc(Nc3ccnc4cc(Cl)ccc34)cc2)CC1c1ccc(Cl)cc1 (centres undefined)
Response: > 100 µM

Query: Proceed to CC(=O)OC(Cc1ccc2ccccc2n1)(C(F)(F)F)C(F)(F)F
Response: 3.48 µM

Query: Ok, now CCOC(=O)C[n+]1cccc(C2(c3cc4ccccc4[nH]3)OCCO2)c1
Response: > 100 µM

Query: // same read-out, input: COc1cc(C2SC(C)C(=O)N2c2ccc(-c3csc(NS(=O)(=O)c4ccc(Cl)c(OC)c4)n3)cc2)ccc1O (centres undefined)
Response: > 100 µM

Query: What about COc1cc2c(cc1OC)C(Sc1ccc(SC)cc1)c1c(nc(N)c(C#N)c1N)O2 (centres undefined) ?
Response: 3.24 µM

Query: Also Cn1c(=O)c(NC(=O)C(Cl)(Cl)Cl)nc2ccccc21 , if possible.
Response: > 100 µM

Query: Also need CCOc1cc(Br)c(C(C)NC(=O)c2cccc(OC)c2)cc1OCC (centres undefined) , thanks.
Response: > 100 µM

Query: Same for Nc1cc(O)ccc1N=Nc1ccc(-c2nc3ccccc3[nH]2)cc1
Response: > 100 µM

Query: Same again, this time with CN(CCO)CCCC1COc2ccccc2O1 (centres undefined)
Response: > 100 µM

Query: How about this molecule: O=[N+]([O-])c1ccc(Cl)c(C2CC(c3cccc4ccccc34)=Nc3ccccc3S2)c1 (centres undefined)
Response: 63.4 µM

Query: What about this molecule? CC1=CC(=O)C(C(C)C)=CC1=Nc1cc(Br)c(O)c(Br)c1
Response: 7.52 µM

Query: What do we get for Nc1ccccc1.[C-]#[O+].[C-]#[O+].[C-]#[O+].[C-]#[O+].[C-]#[O+].[Cr] ?
Response: > 10 µM
